target: T1, Recombinant DR3-Fc (R&D Systems, cat. #943-D3) (UniProt Q93038 25-199, limits assumed)
T1 construct: dimeric MW~92 kDa; also called DR3 receptor; Fc-DR3; not shown: Fc part of the bought fusion
T1 sequence (looked up): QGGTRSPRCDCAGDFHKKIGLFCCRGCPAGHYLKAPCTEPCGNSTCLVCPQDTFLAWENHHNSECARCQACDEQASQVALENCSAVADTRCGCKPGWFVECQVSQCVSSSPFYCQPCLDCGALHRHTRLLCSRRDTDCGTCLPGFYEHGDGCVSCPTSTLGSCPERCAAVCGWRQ
test_summary: ELISA, DR3-Fc immobilized
quantity: EC50 (nM)
Number in nM, nothing else.

# example entries with known answers
binder="TL1W90 (His-TEV-TL1A R156K) (ligand, also called TL1W90 (R156K)) HHHHHHENLYFQGLKGQEFAPSHQQVYAPLRADGDKPRAHLTVVRQTPTQHFKNQFPALHWEHELGLAFTKNRMNYTNKFLLIPESGDYFIYSQVTFKGMTSECSEIRQAGRPNKPDSITVVITKVTDSYPEPTQLLMGTKSVCEVGSNWFQPIYLGAMFSLQEGDKLMVNVSDISLVDYTKEDKTFFGAFLL" quantity=EC50 unit_info=nM quantitative_result=188
binder="TL1W92 (His-TEV-TL1A M158Y) (ligand, also called TL1W92 (M158Y)) HHHHHHENLYFQGLKGQEFAPSHQQVYAPLRADGDKPRAHLTVVRQTPTQHFKNQFPALHWEHELGLAFTKNRMNYTNKFLLIPESGDYFIYSQVTFRGYTSECSEIRQAGRPNKPDSITVVITKVTDSYPEPTQLLMGTKSVCEVGSNWFQPIYLGAMFSLQEGDKLMVNVSDISLVDYTKEDKTFFGAFLL" quantity=EC50 unit_info=nM quantitative_result=16.6

Now for another entry.
The recorded EC50 for entry TL1W40 (His-TEV-TL1A L123S) (ligand, also called TL1W40 (L123S)) HHHHHHENLYFQGLKGQEFAPSHQQVYAPLRADGDKPRAHLTVVRQTPTQHFKNQFPALHWEHESGLAFTKNRMNYTNKFLLIPESGDYFIYSQVTFRGMTSECSEIRQAGRPNKPDSITVVITKVTDSYPEPTQLLMGTKSVCEVGSNWFQPIYLGAMFSLQEGDKLMVNVSDISLVDYTKEDKTFFGAFLL equals 30.7
